- EXPERIMENTAL SYSTEM: UniProt P00734
QUANTITY NAME: IC50

Query: So what IC50 did `CC(C)N1CCC(C(=O)Nc2c(O[C@@H]3O[C@H](C(=O)O)[C@@H](O)[C@H](O)[C@H]3O)cc(Br)cc2C(=O)Nc2ccc(Cl)cn2)CC1` get with UniProt P00734?
Reply: > 100 µM

----------
- EXPERIMENT NOTES: Lipophilicity, logD of the compound
- Format: physicochemical
- TEST SETTINGS: octanol/water
logD overview
Form: value (number only, do not type unit).

Query: Suppose we examine the compound `CC(C)N1CCC(C(=O)Nc2c(O[C@@H]3O[C@H](C(=O)O)[C@@H](O)[C@H](O)[C@H]3O)cc(Br)cc2C(=O)Nc2ccc(Cl)cn2)CC1` ; what logD value has been reported?
Reply: -1.1

Query: Please look up its logD: `CC(C)N1CCC(C(=O)Nc2ccc(Cl)cc2C(=O)Nc2ccc(Cl)cn2)CC1`
Reply: 1.8

----------
- EXPERIMENT NOTES: Permeability of the compound at pH 6.5 after 2 hrs by PAMPA
- Assay type: ADME
- TEST SETTINGS: read-out: permeability
QUANTITY NAME: Papp at 2 h

CC(C)N1CCC(C(=O)Nc2c(O)cc(Br)cc2C(=O)Nc2ccc(Cl)cn2)CC1 :: > 30 ×10⁻⁶ cm/s

Query: Field request: Papp at 2 h | item: `CC(C)N1CCC(C(=O)Nc2ccc(Cl)cc2C(=O)Nc2ccc(Cl)cn2)CC1`
Reply: > 30 ×10⁻⁶ cm/s

----------
- EXPERIMENTAL SYSTEM: Coagulation factor X (Homo sapiens)
- Sequence (P00742 41-179 limits assumed): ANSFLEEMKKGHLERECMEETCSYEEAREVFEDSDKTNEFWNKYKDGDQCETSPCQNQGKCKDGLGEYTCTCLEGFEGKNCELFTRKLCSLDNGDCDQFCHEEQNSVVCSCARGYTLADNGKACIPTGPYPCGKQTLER
- Sequence (P00742 235-488 limits assumed): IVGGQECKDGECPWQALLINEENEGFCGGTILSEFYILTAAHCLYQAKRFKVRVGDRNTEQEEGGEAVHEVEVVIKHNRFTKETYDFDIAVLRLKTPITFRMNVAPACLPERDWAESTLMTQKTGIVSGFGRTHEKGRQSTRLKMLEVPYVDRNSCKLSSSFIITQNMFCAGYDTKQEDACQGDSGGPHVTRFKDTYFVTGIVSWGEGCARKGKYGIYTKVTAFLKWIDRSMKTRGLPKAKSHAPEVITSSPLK
- EXPERIMENT NOTES: Inhibition of purified factor 10a (unknown origin) using chromogenic substrate S-2222 by spectrophotometry
Let's look at some molecules and their measured IC50.
Report as a plain number; the unit nM is understood.

CC(C)N1CCC(C(=O)Nc2c(O[C@@H]3O[C@H](C(=O)O)[C@@H](O)[C@H](O)[C@H]3O)cc(Cl)cc2C(=O)Nc2ccc(Cl)cn2)CC1 :: 15

Query: Give the measured IC50 of `CC(C)N1CCC(C(=O)Nc2c(O)cc(Br)cc2C(=O)Nc2ccc(Cl)cn2)CC1` .
Reply: 4

Query: IC50; subject: `CC(C)N1CCC(C(=O)Nc2c(O)cc(Cl)cc2C(=O)Nc2ccc(Cl)cn2)CC1`
Reply: 8.2
